# assayed-system: Fuc(a1-2)[Gal(a1-3)]Gal(b1-4)[Fuc(a1-3)]Glc
# protocol-text: glycan array binding signal (z-score within array); higher = stronger binding
# condition-set: glycan notation: IUPAC condensed, linker removed
Shown is part of a subset that was picked to be rich in the strongest signals.
attribute-measured: glycan array binding signal (z-score)
Give the figure only, with no unit attached.

Let me know recorded glycan array binding signal (z-score) for CSA (Cytisus scoparius), P29257 (protein) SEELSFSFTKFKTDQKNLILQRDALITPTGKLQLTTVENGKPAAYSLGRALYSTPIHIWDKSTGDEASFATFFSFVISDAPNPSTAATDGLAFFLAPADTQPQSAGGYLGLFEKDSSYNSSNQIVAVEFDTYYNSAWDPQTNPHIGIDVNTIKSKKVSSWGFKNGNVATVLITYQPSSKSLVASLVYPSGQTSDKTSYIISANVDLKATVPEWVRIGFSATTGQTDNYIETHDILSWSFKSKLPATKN , thanks.
-0.201

Quickly give me recorded glycan array binding signal (z-score) for Clec49 (Caenorhabditis elegans) (protein) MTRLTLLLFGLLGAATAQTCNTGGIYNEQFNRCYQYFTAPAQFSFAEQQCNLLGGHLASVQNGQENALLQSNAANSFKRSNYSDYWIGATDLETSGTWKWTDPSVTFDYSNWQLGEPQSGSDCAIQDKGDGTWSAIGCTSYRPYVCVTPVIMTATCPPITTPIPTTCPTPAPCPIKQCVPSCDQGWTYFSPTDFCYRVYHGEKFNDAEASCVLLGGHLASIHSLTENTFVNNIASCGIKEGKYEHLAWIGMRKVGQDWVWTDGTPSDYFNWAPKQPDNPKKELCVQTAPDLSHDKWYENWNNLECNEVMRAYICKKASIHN
-0.454

Provenance of the data: the supplement of paper PMC8728848
